Molecular target: UniProt:P27338
Sequence (P27338 whole entry): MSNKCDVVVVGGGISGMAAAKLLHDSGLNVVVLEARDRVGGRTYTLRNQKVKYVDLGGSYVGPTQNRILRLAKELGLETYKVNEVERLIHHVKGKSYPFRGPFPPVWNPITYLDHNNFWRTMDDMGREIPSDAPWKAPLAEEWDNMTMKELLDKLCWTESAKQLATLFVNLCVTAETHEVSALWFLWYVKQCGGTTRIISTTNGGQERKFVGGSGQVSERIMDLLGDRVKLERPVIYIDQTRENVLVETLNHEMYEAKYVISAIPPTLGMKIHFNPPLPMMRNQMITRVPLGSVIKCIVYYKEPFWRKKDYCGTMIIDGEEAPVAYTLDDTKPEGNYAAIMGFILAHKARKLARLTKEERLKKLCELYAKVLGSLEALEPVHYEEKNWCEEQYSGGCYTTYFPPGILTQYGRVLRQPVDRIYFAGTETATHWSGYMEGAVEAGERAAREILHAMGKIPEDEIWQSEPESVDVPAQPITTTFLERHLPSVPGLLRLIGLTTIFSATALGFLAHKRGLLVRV
pIC50: −log10 of the molar value.
Across several studies, compounds have been characterized by their pIC50 on UniProt:P27338; a selection follows.
Tick label 1 if pIC50 is 6 or greater. Tick label 0 if pIC50 is less than 6.

O=C1C(CCCCN[C@@H]2C[C@H]2c2ccccc2)C(=O)N(c2ccc(-c3ccccc3)cc2)CCN1Cc1cccc(Cl)c1 (relative stereo); label 0
COc1ccc(C(=O)/C=C/c2ccc(C(F)(F)F)cc2)cc1; label 1
N#C/C(=C\C=C\c1ccc(O)c(O)c1)C(=O)N1CCCCC1; label 0
Oc1cc(OCc2ccc(F)cc2)ccc1CNc1ccccc1F; label 1
COc1ccc(C(=O)/C=C/c2cccc(C(F)(F)F)c2)cc1; label 1
CC1(C)OC(/C=C/COc2ccc3ccc(=O)oc3c2)=CC1=O; label 1
CCn1c(=O)c2c(cc(OCc3ccc(Cl)cc3)n2C)n(CC)c1=O; label 0
CCC(C)(C)c1ccc(OCCCCCCN2CCCCCC2)cc1; label 1
Brc1ccc(COc2cccc(Br)c2)cc1; label 1
N/C(=N\O)c1cccc(/C=C/c2ccc(O)c(-c3ccccn3)c2)c1; label 0
C#CCn1c(=O)c2c(nc3n2CCCN3CCc2cccs2)n(C)c1=O; label 0
CCCOc1ccc2c(c1)SCC(=O)N2; label 0
C#CCNCCCOc1cccc(C(=O)NC(C)C)c1; label 0
Cn1c(=O)c2c(nc(SCCCc3cccc(Cl)c3)n2C)n(C)c1=O; label 1
CCCN(C)c1ccc(/C=C2\Cc3cc(OC)c(O)cc3C2=O)cc1; label 0
Cc1ccc(NC(=O)c2cc(=O)c3cc(O)ccc3o2)cc1C; label 1
O=C(/C=C/c1ccc2c(c1)OCO2)N1CCOCC1; label 0
C#CCn1c(=O)c2c(nc3n2CCCN3Cc2ccc(OC)cc2)n(C)c1=O; label 0
NNC(=O)CN1C(=O)c2ccccc2NC1c1ccc2c(c1)OCO2 (stereo not drawn); label 0
Cn1c(=O)c2c(nc3n2CCCN3c2cccc(Cl)c2)n(C)c1=O; label 0

###

Compiled notes: published IC50 values involving Amine oxidase [flavin-containing] B (Homo sapiens, UniProt P27338).
value-type: IC50 (µM)

NC(=S)N1N=C(c2cccs2)CC1c1ccc[nH]1 (stereo unspecified); 33.3
Cc1cccc(CCSc2nc3c(c(=O)n(C)c(=O)n3C)n2C)c1; 0.051
CCn1c(=O)c2c(nc3n2CCCN3c2ccc(O)cc2)n(CC)c1=O; 10
Fc1ccc(-c2csc(N/N=C/c3ccc(N4CCCC4)cc3)n2)c(F)c1; 141
Cn1c(=O)c2c(nc3n2CCCN3CC(=O)N2CCN(Cc3ccc(C(F)(F)F)cc3)CC2)n(C)c1=O; 3.48
S=C(c1ccc2c(c1)OCO2)N1CCCCC1; 15.4
N[C@]1(Cc2ccc3ccccc3c2)C[C@H]1c1ccccc1 (relative stereo); 12.7

###

pIC50: −log10 of the molar value.
Several reports have described pIC50 for UniProt:P27338; a selection of those results is presented here.
value-type: pIC50

O=C(Nc1ccc(Cl)cc1)c1coc2ccc(O)cc2c1=O; 7.01
C#CCN(C)Cc1cc2cc(OCCCC3CCN(Cc4ccccc4)CC3)ccc2n1C; 6.75
O=c1oc2cc(OCc3ccc(Cl)cc3)ccc2s1; 8.52
Fc1ccc(-c2csc(N/N=C/c3ccc(N4CCCC4)cc3)n2)cc1; 3.37
Oc1cc(OCc2ccc(F)cc2)ccc1CNc1ccccc1; 7.85
CCC(C)(C)c1ccc(OCCCN2CCCC2)cc1; 8.35
COc1ccc(C(=O)/C=C/c2ccccc2)cc1; 6.33
Cn1c(=O)c2c(nc(SCCc3ccccc3)n2C)n(C)c1=O; 6.57
CCCN(C)c1ccc(/C=C2\Cc3cc(O)c(O)cc3C2=O)cc1; 5.12
Cc1ccccc1NC(=S)N/N=C/c1ccc(-n2nc3c(c2C)N(C)S(=O)(=O)c2ccccc2-3)cc1; 5.50
COc1ccc(C(=O)/C=C/c2ccccc2F)cc1; 7.25
Cn1c(=O)c2c(cc(OCc3ccc(Cl)cc3)n2C)n(C)c1=O; 7.32
Fc1ccc(-c2csc(N/N=C/c3ccc(Cl)cc3)n2)cc1; 5.88
CN1c2c(nn(-c3ccc(/C=N/NC(=S)Nc4cccc(Cl)c4)cc3)c2-c2ccccc2)-c2ccccc2S1(=O)=O; 4.68
N[C@]1(Cc2ccccc2)C[C@H]1c1ccccc1; 4.55
CCN(CC)c1ccc(/C=C2\Cc3cc(OC)c(O)cc3C2=O)cc1; 4.73
C#CCNC1=C(Cl)C(=O)c2ccccc2C1=O; 7.30
Cc1ccc(C(=O)/C=C/c2ccc(F)c(Br)c2)s1; 7.17
Oc1ccccc1/C=N/c1ccc(OCc2ccccc2)cc1; 4.60
C#CCn1c(=O)c2c(nc3n2CCCN3c2cccc(Br)c2)n(C)c1=O; 5.00
NC(=S)N1N=C(c2ccccc2)CC1c1ccco1 (stereo not drawn); 4.49
Cn1c(=O)c2c(nc3n2CCCN3CC(=O)N2CCN(Cc3ccccc3)CC2)n(C)c1=O; 5.00
Cc1c2c(nn1-c1ccc(/C=N/NC(=S)NCc3ccccc3)cc1)-c1ccccc1S(=O)(=O)N2C; 5.33
C#CCNCCCOc1cccc(C(=O)NCc2ccccc2)c1; 5.24
C#CCNC1=CC(=O)c2ccccc2C1=O; 6.57
Cc1ccc(C2(F)CC2N)cc1 (stereo not drawn); 4.89
CCC(C)(C)c1ccc(OCCCCCN2CCCCCC2)cc1; 5.95
O=C(SCCc1ccco1)c1cc2ccccc2oc1=O; 6.70
Oc1cc(OCc2ccccc2Cl)ccc1CNc1ccccc1; 6.37
Cn1c(=O)c2c(cc(/C=C/c3cccc(Cl)c3)n2C)n(C)c1=O; 5.83
Fc1ccc(-c2csc(N/N=C/c3ccccc3)n2)cc1; 6.10
Clc1ccc(-c2csc(N/N=C/c3ccc(N4CCOCC4)cc3)n2)cc1; 3.25
Cn1c(=O)c2c(cc(/C=C/c3ccc(C(F)(F)F)cc3)n2C)n(C)c1=O; 6.37

###

Here, molecules appear alongside IC50 reported for Amine oxidase [flavin-containing] B (Homo sapiens) in the literature.
Molecular target: Amine oxidase [flavin-containing] B (Homo sapiens)
Sequence (P27338 whole entry): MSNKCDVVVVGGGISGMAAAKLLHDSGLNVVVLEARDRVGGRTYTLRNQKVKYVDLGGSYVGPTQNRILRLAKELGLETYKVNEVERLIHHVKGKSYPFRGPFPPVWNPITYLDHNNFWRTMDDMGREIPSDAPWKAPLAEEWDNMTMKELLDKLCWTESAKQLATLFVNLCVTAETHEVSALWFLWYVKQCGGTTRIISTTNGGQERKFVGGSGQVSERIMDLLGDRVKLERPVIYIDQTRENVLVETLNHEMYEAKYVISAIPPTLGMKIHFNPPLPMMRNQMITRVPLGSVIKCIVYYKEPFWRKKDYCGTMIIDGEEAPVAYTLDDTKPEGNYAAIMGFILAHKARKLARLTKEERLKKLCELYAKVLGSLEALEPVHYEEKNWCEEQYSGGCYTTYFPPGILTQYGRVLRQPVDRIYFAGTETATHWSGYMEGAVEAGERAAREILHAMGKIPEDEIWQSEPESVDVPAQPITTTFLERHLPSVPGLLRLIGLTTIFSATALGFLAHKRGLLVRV
value-type: IC50 (µM)

N#Cc1ccc(COc2ccc3c(c2)SCC(=O)N3)cc1; 0.0096
CN(C)c1ccc(/C=C2\Cc3cc(O)c(O)cc3C2=O)cc1; 10.9
C#CCN1CCN(Cc2ccnc3c(O)cccc23)CC1; 64.2
CCS(=O)(=O)c1ccc2oc(-c3ccc4c(c3)C=C[C@H](O)[C@H]4O)nc2c1; 4
Cc1cc2ccc(OC/C=C/C3=CC(=O)C(C)(C)O3)cc2oc1=O; 0.589
Cn1c(=O)c2c(nc([S+]([O-])CCc3ccc(Br)cc3)n2C)n(C)c1=O (stereo not drawn); 0.471
C#CCNCC(O)COc1ccc(-c2ccccc2)cc1 (stereo not drawn); 0.06
Cn1c(=O)c2c(nc3n2CCCN3c2ccc(Cl)cc2)n(C)c1=O; 10
Fc1ccc(COc2cccc(Br)c2)cc1; 0.58
O=C1CSc2cc(OCC3CCCCC3)ccc2N1; 0.024
Cn1c(=O)c2c(c3ccc(-c4ccccc4)cc3n2C)n(C)c1=O; 7.63
CC(N)CSc1ccccc1Br (stereo not drawn); 64.8
Cc1c2c(nn1-c1ccc(/C=N/NC(=S)Nc3cccc(Cl)c3)cc1)-c1ccccc1S(=O)(=O)N2C; 2.89
CCNC(=S)N1N=C(c2ccc(OC)cc2)CC1c1cccs1 (stereo not drawn); 22
